Tested on: Abp1 PPIs
Assay: DHFR-PCA of Abp1 SH3-swapped baits (Fig. 2B-D, S2C, S2F);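 note: Euclidean distance between DHFR-PCA score profiles of the baits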
Assay type: cell-based, Saccharomyces cerevisiae
Settings: distance to Abp1 bait with CYK3 SH3; sheet Fig2C
recordedEndpoint: Protein-protein interaction distance between Abp1 SH3-swapped baits, to CYK3
Enter a number only.

**Q:** Fill in the blank: the reported Protein-protein interaction distance between Abp1 SH3-swapped baits, to CYK3 of LSB1 (protein, UniProt P53281 2-241, looked up) LAS seventeen-binding protein …: SASLVNRSLKNIRNELEFLKESNVISGDIFELINSKLPEKWDGNQRSPQNADTEEYVEALYDFEAQQDGDLSLKTGDKIQVLEKISPDWYRGKSNNKIGIFPANYVKPAFTRSASPKSAEAASSSTVSRPSVPPPSYEPAASQYPSQQVSAPYAPPAGYMQAPPPQQQQAPLPYPPPFTNYYQQPQQQYAPPSQQAPVEAQPQQSSGASSAFKSFGSKLGNAAIFGAGSAIGSDIVNSIF is ____.
**A:** 31.53
